- System: primary human hepatic stellate cells (donor 1)
- ASSAY: scaled lipid accumulation score (0 = DMSO-like, 1 = nortriptyline-like); higher = stronger HSC inactivation (lipid re-accumulation), active = hit call of the paper
- SETUP CONDITIONS: library stock concentration: 10 mM; 48 h
Counter-ions that a name gives are not always drawn. The whole screen tested about 5,800 compounds, of which about 620 (11%) showed activity.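 The calls were made as follows: active = score above a cut-off or among the top three wells of a plate; in these data no inactive exceeds 0.85.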 This excerpt belongs to a sample that is enriched for actives.
Classes used: yes (1) = active, no (0) = inactive

• C#CCOC(=O)C1=CCCN(C)C1 [Arecaidine propargyl ester hydrobromide] = no (0)
• COc1cc2c3cc1Oc1c(OC)c(OC)cc4c1[C@@H](Cc1cccc(c1)Oc1ccc(c(O)c1)C[C@@H]3N(C)CC2)N(C)CC4 [Berbamine hydrochloride] = no (0)
• COC(=O)[C@@H](N)CCCNC(=N)N[N+](=O)[O-] [NG-Nitro-L-arginine methyl ester hydrochloride] = no (0)
• Fc1ccc(C(OCCN2CCN(CCCc3ccccc3)CC2)c2ccc(F)cc2)cc1 = no (0)
• FC(F)(F)c1cccc(C2=CCN(CCc3ccc4ccccc4c3)CC2)c1 [Xaliproden hydrochloride] = no (0)
• O=C(O)c1ccc2[nH]cc(CCCCN3CC=C(c4ccccc4)CC3)c2c1 [Carmoxirole hydrochloride] = no (0)
• CS(=O)(=O)O.Oc1ccc2c3c1O[C@H]1c4oc5ccccc5c4C[C@@]4(O)C(C2)N(CC2CC2)CC[C@]314 [Naltriben mesylate] = yes (1)
• CC[C@@]1(O)C[C@H](O[C@H]2C[C@H](N(C)C)[C@H](O)[C@H](C)O2)c2c(cc3c(c2O)C(=O)c2c(O)ccc(O)c2C3=O)[C@H]1C(=O)OC [Pyrromycin] = no (0)

====

Readings of scaled lipid accumulation score for the listed compounds
- Test system: primary human hepatic stellate cells (donor 1)
- ASSAY: scaled lipid accumulation score (0 = DMSO-like, 1 = nortriptyline-like); higher = stronger HSC inactivation (lipid re-accumulation), active = hit call of the paper
- SETUP CONDITIONS: library stock concentration: 10 mM; 48 h
Where a name gives a salt, the structure may show the parent alone. About 620 (11%) of roughly 5,800 compounds showed activity. What follows is part of a selection rich in actives, with near analogues and random picks from the rest.
QUANTITY NAME: scaled lipid accumulation score

* Oc1cc2c(cc1O)[C@H]1c3ccccc3CN[C@@H]1CC2 (racemic) [Dihydrexidine hydrochloride] | 0.823 (inactive)
* CC(C)=CCC[C@]1(C)C=Cc2c(O)c3c(c(CC=C(C)C)c2O1)O[C@]12C(=C[C@@H]4C[C@H]1C(C)(C)O[C@@]2(C/C=C(/C)C(=O)O)C4=O)C3=O | 0.672 (inactive)
* COc1ccc(C[C@H]2NC[C@H](O)[C@H]2OC(C)=O)cc1 | 0.806 (inactive)
* OC[C@@H](O)[C@H]1O[C@@H]2O[C@H](C(Cl)(Cl)Cl)O[C@@H]2[C@H]1O | ≤ 0 (inactive)
* CC(=O)O[C@@H]1CC[C@@]2(C)[C@@H](CC[C@@H]3[C@@H]2CC[C@]2(C)C(=O)CC[C@@H]32)C1 [Androsterone acetate] | ≤ -0.027 (inactive)
* O=C1C2CCN(CC2)C1(CO)CO | 0.045 (inactive)
